# PROTOCOL: Pharmacokinetics in Yucatan mini-pigs, single subcutaneous or intravenous dose
# Format: in vivo
# RUN_CONDITIONS: minipig, plasma; single intravenous dose 19 nmol/kg, male Yucatan pigs, mean; read-out: AUC0-inf
*1 amine or outer side, *2 acyl side, *3 side chain or, on linkers, in order; H or OH if unused. Side-chain parts run from the residue outwards. [ ]: non-standard residue; d: D form. The star is where a group is joined. C20 diacid = O=C(O)CCCCCCCCCCCCCCCCCCC(=O)*; γGlu = O=C(O)[C@H](CCC(=O)[*:2])N[*:1]; εLys = N[C@@H](CCCCN[*:1])C(=O)[*:2]; αMeL = CC(C)C[C@](C)(N)C(=O)O; AEEA = NCCOCCOCC(=O)O; Aib = CC(C)(N)C(=O)O
READOUT_KIND: AUC0-inf (µM·h)

[[record]]
substance = "Ac-GSPSIVTS[αMeL]DVPT[Aib][αMeL]LQKILEQERAEKARQQAK([γGlu-AEEA-εLys-C20 diacid])EAAEILAQV-NH2 [SEQ ID NO: 1]"
unit_string = "µM·h"
reading = 26.2

[[record]]
substance = "{C20 diacid-εLys-AEEA-γGlu}-GSPSIVTS[αMeL]DVPT[Aib][αMeL]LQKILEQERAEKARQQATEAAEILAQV-NH2 [SEQ ID NO: 25]"
unit_string = "µM·h"
reading = 39.6

[[record]]
substance = "Ac-GSPSIVTS[αMeL]DVPT[Aib][αMeL]LQKLLEQERAEKARQQAK([γGlu-AEEA-εLys-C20 diacid])EAAEILAQV-NH2 [SEQ ID NO: 2]"
unit_string = "µM·h"
reading = 30.9

[[record]]
substance = "Ac-PPPIVTS[αMeL]DVPT[Aib][αMeL]LQKLLEQERAEKARQQAK([γGlu-AEEA-εLys-C20 diacid])EAAEILAQV-NH2 [SEQ ID NO: 48]"
unit_string = "µM·h"
reading = 36.9

